target: cCaSR (Felis catus, UniProt C7FF08)
Sequence (C7FF08 1-1081): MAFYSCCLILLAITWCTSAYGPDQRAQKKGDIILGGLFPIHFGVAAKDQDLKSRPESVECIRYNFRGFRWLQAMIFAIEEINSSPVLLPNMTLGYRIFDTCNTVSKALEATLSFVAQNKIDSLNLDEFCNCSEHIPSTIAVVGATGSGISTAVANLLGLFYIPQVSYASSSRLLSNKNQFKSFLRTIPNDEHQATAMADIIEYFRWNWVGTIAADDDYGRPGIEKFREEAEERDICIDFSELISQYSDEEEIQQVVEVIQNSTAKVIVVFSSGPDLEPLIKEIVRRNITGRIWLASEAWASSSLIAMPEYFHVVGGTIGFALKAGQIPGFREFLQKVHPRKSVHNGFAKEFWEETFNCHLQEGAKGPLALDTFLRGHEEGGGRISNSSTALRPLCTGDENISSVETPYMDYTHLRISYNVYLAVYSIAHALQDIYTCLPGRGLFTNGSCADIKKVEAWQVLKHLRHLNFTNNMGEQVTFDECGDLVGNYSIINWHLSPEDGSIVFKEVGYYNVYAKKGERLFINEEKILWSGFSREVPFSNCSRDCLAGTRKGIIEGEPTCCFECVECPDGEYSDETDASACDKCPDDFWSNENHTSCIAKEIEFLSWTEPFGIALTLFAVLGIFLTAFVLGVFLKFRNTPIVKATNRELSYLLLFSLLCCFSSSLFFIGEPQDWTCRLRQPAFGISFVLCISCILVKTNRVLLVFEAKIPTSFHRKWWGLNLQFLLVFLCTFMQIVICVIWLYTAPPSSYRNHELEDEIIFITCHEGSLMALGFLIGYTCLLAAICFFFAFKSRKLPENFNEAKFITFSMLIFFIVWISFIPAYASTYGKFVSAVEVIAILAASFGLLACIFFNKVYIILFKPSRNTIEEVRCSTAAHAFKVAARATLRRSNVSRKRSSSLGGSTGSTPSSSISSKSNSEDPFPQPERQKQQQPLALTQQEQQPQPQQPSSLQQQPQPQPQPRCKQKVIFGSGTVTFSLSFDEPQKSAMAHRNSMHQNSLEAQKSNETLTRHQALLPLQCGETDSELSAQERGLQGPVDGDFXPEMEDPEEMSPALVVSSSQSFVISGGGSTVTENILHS
endpoint-name: agonist activity on cCaSR (in words)

compound: N[C@@H](Cc1ccc(OP(=O)(O)O)cc1)C(=O)O [O-Phospho-L-tyrosine]
measured-on: cCaSR (Felis catus, UniProt C7FF08)
recorded-result: agonist activity
--
compound: COC(=O)C(N)CC(=O)O (racemic) [DL-Aspartic acid α-methyl ester]
measured-on: cCaSR (Felis catus, UniProt C7FF08)
recorded-result: agonist activity
